Listed next: entries and their corresponding GI50.
# System: OVCAR-3
# test-description: NCI tumour cell line growth inhibition, 48 h
Active and inactive are the calls of the source. Rule as the data show it: active = GI50 up to about 1.1 µM and inactive = higher.

[[record]]
compound = "N#C/C(c1nc2ccccc2[nH]1)=c1\\s/c(=C/c2ccc(Cl)cc2)c(=O)n1-c1ccccc1"
recorded_value = "> 100 µM (inactive)"

[[record]]
compound = "OC[C@H](O)[C@@H](OCc1ccccc1)[C@H](NCc1ccccc1)c1cccs1"
recorded_value = "> 100 µM (inactive)"

[[record]]
compound = "CCOC(=O)C(NC(=O)c1cccc(Cl)c1)(N1CCN(c2cc3c(cc2F)c(=O)c(C(=O)O)cn3C2CC2)CC1)C(F)(F)F (stereo not given)"
recorded_value = "10.7 µM (inactive)"

[[record]]
compound = "O=C(O)CSc1ccn(Cc2ccccc2)c1"
recorded_value = "> 100 µM (inactive)"


Now take the following compound into account.
I am curious: what GI50 value has been reported for `CCCC(=O)N(C)/N=N/c1ccc(C(=O)OCC)cc1` ?
> 100 µM (inactive)

---

# System: UO-31
# test-description: NCI tumour cell line growth inhibition, 48 h
Active and inactive are the calls of the source. No stated cut-off is given here; in the data, active = GI50 up to about 1.1 µM and inactive = higher.
assay-endpoint: GI50

[[record]]
compound = "Brc1ccc2[nH]cc(-c3csc(-c4c[nH]c5ccc(Br)cc45)n3)c2c1"
recorded_value = "2.42 µM (inactive)"

[[record]]
compound = "COC(=O)c1ccccc1/C=C1/Cc2cccc(C)c2C1=O"
recorded_value = "> 100 µM (inactive)"

[[record]]
compound = "COC(=O)CCc1ccc2c(c1)CC1(C2)Cc2ccc(CCC(=O)OC)cc2C1"
recorded_value = "> 100 µM (inactive)"

[[record]]
compound = "C[C@@]1(O)CC[C@]2(C)C3CCCC3[C@H]12 (stereo not given in full)"
recorded_value = "> 100 µM (inactive)"


Notebook: pull reported GI50 for UO-31, entry `O=C(NNC(=S)Nc1ccccc1)c1cc(-c2ccccc2)nc2ccccc12`
15.2 µM (inactive)

# repeat for `CCOC(=O)CC[C@H](NC(=O)c1nc[nH]c1[N+](=O)[O-])C(=O)OCC`
> 100 µM (inactive)

Moving on to CC(=O)OC1C2CCC3CC2C2(SCCS2)C31 (stereo not given)
> 100 µM (inactive)

For CC(=O)NC1C(OCC(=O)NC(C)C(=O)NC(CCC(=O)NCCCCCNc2ccc([N+](=O)[O-])c3[nH]c4ccccc4c(=O)c23)C(N)=O)C(O)C(CO)OC1(C)OCc1ccccc1 (stereo not given) then?
> 50 µM (inactive)

Then `COc1cc(C(=O)NC(CCN)(c2ccccc2)c2ccccc2)cc(OC)c1OC` ?
20.9 µM (inactive)

One more compound: `NNS(=O)(=O)c1ccc(/C=C2\NC(=O)NC2=O)cc1`
> 100 µM (inactive)

---

# System: NCI/ADR-RES
# test-description: NCI tumour cell line growth inhibition, 48 h
The source made the active and inactive calls. Rule as the data show it: active = GI50 up to about 1.1 µM and inactive = higher.
// reported GI50 for each item listed

Recorded GI50 for `COc1ccc(C2=Nn3c(nnc(Cc4ccc(Cl)cc4)c3=O)SC2)cc1` with NCI/ADR-RES, please?
19.8 µM (inactive)

Same question for `C[Si](C)(C)C1=C([Si](C)(C)C)C(Cl)(Cl)C1=O` please.
3.42 µM (inactive)

Another compound to look at: `COc1ccc(CCNC(=S)NC=C2C(=O)c3ccccc3C2=O)cc1OC`
> 100 µM (inactive)

Queued: `c1ccc(CNc2c3c(nc4ccccc24)CCC3)cc1`
14.2 µM (inactive)

And the next one, O=C1/C(=C\c2cccc(Oc3ccccc3)c2)S(=O)(=O)C(c2ccccc2)N1c1cccc(Cl)c1 (stereo not given) ?
35.4 µM (inactive)

For `CCOC(=O)/C(C)=C\[C@@]1(C)O[C@@H](C)[C@@](C)(OC(C)=O)[C@@H]1OC(C)=O` then?
30.2 µM (inactive)

Continue with `O=C(NNC(=S)Nc1ccccc1)c1cc(-c2ccccc2)nc2ccccc12`
17.4 µM (inactive)
